Listed compounds paired with reported pKi
# target_system: Cell division control protein 42 homolog (Homo sapiens) (UniProt P60953)
# Sequence (P60953 whole entry, looked up): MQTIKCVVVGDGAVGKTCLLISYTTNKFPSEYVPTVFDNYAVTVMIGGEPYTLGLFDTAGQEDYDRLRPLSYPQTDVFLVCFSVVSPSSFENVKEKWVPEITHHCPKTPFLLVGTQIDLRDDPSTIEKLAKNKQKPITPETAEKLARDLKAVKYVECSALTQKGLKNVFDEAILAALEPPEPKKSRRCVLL
# method_notes: blockade of fluorescent GTP uptake by Cdc42 wt – biochemical, bead-based multiplex flow cytometry, oxadiazole series, SAR follow-up (AID 2037)
# protocol_conditions: GST-Cdc42 beads, Bodipy-FL-GTP binding, Ki calculated from EC50
In simple prose, pKi is minus the logarithm base ten of a concentration in moles per litre.

Enquiry: What measured pKi goes with COc1cccc(-c2noc(CCC(=O)N3CCN(c4cc(C)ccc4C)CC3)n2)c1 ?
Return: 6.23

Enquiry: What measured pKi goes with COc1ccc(-c2noc(CCC(=O)N3CCN(c4cccc(C(F)(F)F)c4)CC3)n2)cc1 ?
Return: 6.39

***
Enquiry: What measured pKi goes with COc1ccc(-c2noc(CCC(=O)N3CCN(c4ccccc4F)CC3)n2)cc1 ?
Return: 6.85

Enquiry: What measured pKi goes with Cc1cccc(-c2noc(CCC(=O)N3CCN(c4cc(C)ccc4C)CC3)n2)c1 ?
Return: 6.66

Enquiry: What measured pKi goes with COc1ccc(-c2noc(CCCC(=O)N3CCN(c4cc(C)ccc4C)CC3)n2)cc1 ?
Return: 5.88

====

# target_system: Cell division control protein 42 homolog (Homo sapiens) (UniProt P60953)
# method_notes: blockade of fluorescent GTP uptake by Cdc42 wt – biochemical, bead-based multiplex flow cytometry, oxadiazole series, SAR follow-up (AID 2037)
# protocol_conditions: GST-Cdc42 beads, Bodipy-FL-GTP binding, Ki calculated from EC50
Class (by Ki) -- lo: < 200 nM; mid: ≥ 200 nM and < 800 nM; hi: ≥ 800 nM

Past entries and their recorded results:
Enquiry: Would you mind sorting COc1ccc(-c2noc(CCC(=O)N3CCN(c4cccc(OC)c4)CC3)n2)cc1 into the appropriate category?
Return: hi

Enquiry: Would you mind sorting COc1ccc(-c2noc(CCC(=O)N3CCN(c4ccc(OC)cc4)CC3)n2)cc1 into the appropriate category?
Return: lo

Enquiry: Would you mind sorting Cc1ccc(C)c(N2CCN(C(=O)CCc3nc(-c4ccccc4C(F)(F)F)no3)CC2)c1 into the appropriate category?
Return: hi

Enquiry: Would you mind sorting COc1ccccc1-c1noc(CCC(=O)N2CCN(c3cc(C)ccc3C)CC2)n1 into the appropriate category?
Return: mid

Enquiry: Would you mind sorting Cc1ccc(C)c(N2CCN(C(=O)CCc3nc(-c4ccccc4)no3)CC2)c1 into the appropriate category?
Return: hi

***
Enquiry: Would you mind sorting COc1ccc(-c2noc(CCC(=O)N3CCN(c4ccc(C)cc4)CC3)n2)cc1 into the appropriate category?
Return: lo

Enquiry: Would you mind sorting Cc1ccc(C)c(N2CCN(C(=O)CCc3nc(-c4ccc(F)cc4)no3)CC2)c1 into the appropriate category?
Return: lo

Enquiry: Would you mind sorting Cc1ccc(C)c(N2CCN(C(=O)CCc3nc(-c4ccc(C(F)(F)F)cc4)no3)CC2)c1 into the appropriate category?
Return: mid

Enquiry: Would you mind sorting COc1ccc(-c2noc(CCC(=O)N3CCN(c4ccccc4Cl)CC3)n2)cc1 into the appropriate category?
Return: lo

====

# target_system: UniProt:P60953
# method_notes: blockade of fluorescent GTP uptake by Cdc42 wt – biochemical, bead-based multiplex flow cytometry, oxadiazole series, SAR follow-up (AID 2037)
# protocol_conditions: GST-Cdc42 beads, Bodipy-FL-GTP binding, Ki calculated from EC50
Listed compounds paired with reported Ki
Number only, in nM; omit the unit.

Enquiry: What measured Ki goes with Cc1ccc(-c2noc(CCC(=O)N3CCN(c4cc(C)ccc4C)CC3)n2)cc1 ?
Return: 920

Enquiry: What measured Ki goes with Cc1ccc(C)c(N2CCN(C(=O)CCc3nc(-c4ccc(Br)cc4)no3)CC2)c1 ?
Return: 340

All figures here come from PubChem BioAssay AID2037.
